# tgt: T1, Biotin-labeled human CXCR2 N-terminal extracellular peptide (pepN48) (Homo sapiens, UniProt P25025, biotin label (position not given))
# T1 construct: CXC chemokine receptor 2 (CXCR2, interleukin 8 receptor beta), human, the first 48 residues of the protein; Held on the streptavidin chip by its biotin; also called N-terminal peptide; peptide of extracellular N-terminal domain of human CXCR2
# T1 chain: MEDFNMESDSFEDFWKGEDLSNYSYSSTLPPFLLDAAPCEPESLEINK
# experiment: SPR; biotin-labeled pepN48 immobilised on a streptavidin Series S Sensor Chip SA; Biacore T200; IgG1 antibodies injected as analytes in HBS-EP+ buffer pH 7.4; kinetics fitted globally
# measurement-parameters: both partners purified
quantity: pKd
In simple prose, pKd is minus the logarithm base ten of a concentration in moles per litre.

Request: pKd for abN48-3 (antibody, V domains shown, parent VH in PDB 6KVF; constant region of the human IgG1 heavy chain, from the pFuse heavy-chain vector; as the VL of the light chain of m1; light-chain constant region of the pFuse light-chain vector pfuse2ss-hcll2; Full-length IgG1; source: 293F cells, co-transfected, purified from the medium (HiTrap Protein A)) VH: QVQLVQSGAEVKKPGSSVKVSCKASGGTLSSYAISWVRQAPGQGPEWMGWINPNSGGTNYAQKFQGRVTMTRDTSISTAYMELSRLRPDDTAVYYCASGYCSFAICFDSWGQGTLVTVSS VL: QAVLTQPSSLSASPGASVSLTCTLRSGINVGAYRIYWYQQKPGSPPQFLLRYKSDSDKQQGSGVPSRFSGSRDASANAGILLISGLRSEDEADYYCAIWHSSAWVFGGGTQLTVL ?
Response: 8.70
